- Test Target: DRB1*1101 (DR5w11) (Homo sapiens, UniProt P01903+P01911, A100R/A169T/A87E/I96F/K41T/L162R/M171V/P40S/Q125H/Q178H/Q39Y/Q99D/R42S/S66Y/T262R/V115G/W38E)
- Construct: Epstein-Barr virus (EBV) transformed homozygous cell lines were used as sources; endogenous in cells; host or cells: SWEIG (EBV-transformed homozygous B cell line)
- Sequence (P01903 26-254, other chains not shown): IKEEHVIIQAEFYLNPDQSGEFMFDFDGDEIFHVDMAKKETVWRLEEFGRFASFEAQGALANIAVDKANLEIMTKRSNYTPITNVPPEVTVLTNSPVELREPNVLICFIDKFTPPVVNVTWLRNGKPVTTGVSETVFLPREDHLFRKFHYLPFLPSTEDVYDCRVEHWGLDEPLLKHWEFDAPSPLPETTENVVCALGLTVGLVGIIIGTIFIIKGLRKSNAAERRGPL
- Test: biochemical
- Type: binding
- Experimental Context: Binding Capacity (IC50% nM) DR5w11

>  <Compound>
CC[C@H](C)[C@H](NC(=O)[C@H](CO)NC(=O)[C@H](CO)NC(=O)[C@H](CC(N)=O)NC(=O)[C@@H](NC(=O)[C@@H](NC(=O)[C@H](CC(N)=O)NC(=O)[C@@H](N)Cc1ccccc1)C(C)C)C(C)C)C(=O)NCC(=O)N[C@@H](CC(C)C)C(=O)N[C@H](C(=O)N[C@@H](CCSC)C(=O)N[C@H](C(=O)N[C@@H](CC(C)C)C(=O)N[C@@H](CO)C(=O)O)C(C)C)[C@@H](C)CC [Peptide 27.384]

>  <IC50>
> 10000 nM

$$$$

###

- Test Target: DRB1*0401 (DR4w4) (Homo sapiens, UniProt P01903+P01911, A100K/A169T/F76Y/I96L/K127E/L162R/M171V/N62H/P40V/Q125Y/R42H/S133A/S149N/S66Y/V115G/V209L/W38E)
- Construct: Epstein-Barr virus (EBV) transformed homozygous cell lines were used as sources; endogenous in cells; host or cells: PREISS (EBV-transformed homozygous B cell line)
- Test: biochemical
- Type: binding
- Experimental Context: read-out: Binding Capacity (IC 50% nM) DR1,4,7 DR4w4
No end group written: not given here.

>  <Sequence Input>
GPPTALRSFGFAFGYM [Peptide 1136.29]

>  <IC50>
> 1000 nM

$$$$

###

- Test Target: DRB1*0802 (DR8w2) (Homo sapiens, UniProt P01903+P01911, A100R/A103L/A169T/F76Y/H45Y/I96F/K41T/L162R/M171V/P40S/Q125H/Q178H/Q39Y/Q99D/R218S/R42G/S66Y/V115G/W38E)
- Construct: Epstein-Barr virus (EBV) transformed homozygous cell lines were used as sources; endogenous in cells; host or cells: OLL (EBV-transformed homozygous B cell line)
- Test: biochemical
- Type: binding
- Experimental Context: Binding Capacity (IC50% nM) DR8w2
Measurement Type: IC50

>  <Compound>
CC[C@H](C)[C@H](NC(=O)[C@H](CO)NC(=O)[C@H](CO)NC(=O)[C@H](CC(N)=O)NC(=O)[C@@H](NC(=O)[C@@H](NC(=O)[C@H](CC(N)=O)NC(=O)[C@@H](N)Cc1ccccc1)C(C)C)C(C)C)C(=O)NCC(=O)N[C@@H](CC(C)C)C(=O)N[C@H](C(=O)N[C@@H](CCSC)C(=O)N[C@H](C(=O)N[C@@H](CC(C)C)C(=O)N[C@@H](CO)C(=O)O)C(C)C)[C@@H](C)CC [Peptide 27.384]

>  <Obs Value>
> 10000 nM

$$$$

###

- Test Target: DRB1*1201 (DR5w12) (Homo sapiens, UniProt P01903+P01911, A100R/A169T/D57E/D86V/F55L/H45Y/K41T/L162R/M171V/P40S/Q125H/Q178H/Q39Y/Q99D/R42G/S66L/T262R/V114A/V67L/W38E/Y59H/Y61H/Y89S)
- Construct: Epstein-Barr virus (EBV) transformed homozygous cell lines were used as sources; endogenous in cells; host or cells: Herluf (EBV-transformed homozygous B cell line)
- Test: biochemical
- Format: binding
- Experimental Context: read-out: Binding Capacity (IC 50% nM) Other Alleles DR5w12
In this section we review reported IC50 values for a set of compounds.
Measurement Type: IC50

>  <Compound>
CC(C)C[C@H](NC(=O)CNC(=O)[C@H](C)NC(=O)[C@@H](N)CC(C)C)C(=O)N[C@@H](CC(C)C)C(=O)NCC(=O)N[C@@H](CC(N)=O)C(=O)N[C@H](C(=O)N[C@@H](CO)C(=O)N[C@H](C(=O)N[C@H](C(=O)N[C@@H](CC(C)C)C(=O)N[C@@H](CC(C)C)C(=O)NCC(=O)NCC(=O)O)C(C)C)[C@@H](C)O)C(C)C [Peptide F107.10]

>  <Measurement Type>
IC50

>  <Obs Value>
> 1000 nM

$$$$
>  <Compound>
CC(C)C[C@H](NC(=O)[C@H](Cc1c[nH]c2ccccc12)NC(=O)[C@@H](NC(=O)[C@H](Cc1ccccc1)NC(=O)[C@@H](NC(=O)[C@@H]1CCCN1C(=O)[C@H](CC(C)C)NC(=O)[C@H](C)NC(=O)[C@@H]1CCCN1C(=O)[C@H](CC(C)C)NC(=O)[C@H](Cc1ccccc1)NC(=O)[C@H](Cc1ccccc1)NC(=O)[C@H](CCC(N)=O)NC(=O)[C@H](CO)NC(=O)[C@@H](NC(=O)[C@@H](N)CC(C)C)[C@@H](C)O)C(C)C)[C@@H](C)O)C(=O)O [Peptide 1136.16]

>  <Measurement Type>
IC50

>  <Obs Value>
> 1000 nM

$$$$
>  <Compound>
CC(C)[C@H](NC(=O)[C@H](CO)NC(=O)[C@@H](NC(=O)[C@H](C)NC(=O)[C@H](CO)NC(=O)[C@H](CO)NC(=O)[C@H](C)NC(=O)[C@H](C)NC(=O)[C@H](Cc1ccc(O)cc1)NC(=O)[C@@H](NC(=O)[C@H](CO)NC(=O)CNC(=O)[C@H](CCC(N)=O)NC(=O)[C@@H]1CCCN1C(=O)[C@@H](N)CCC(=O)O)[C@@H](C)O)[C@@H](C)O)C(=O)N[C@@H](CC(=O)O)C(=O)O [Peptide 1136.71]

>  <Measurement Type>
IC50

>  <Obs Value>
> 1000 nM

$$$$

###

- Test Target: DRB1*1201 (DR5w12) (Homo sapiens, UniProt P01903+P01911, A100R/A169T/D57E/D86V/F55L/H45Y/K41T/L162R/M171V/P40S/Q125H/Q178H/Q39Y/Q99D/R42G/S66L/T262R/V114A/V67L/W38E/Y59H/Y61H/Y89S)
- Construct: Epstein-Barr virus (EBV) transformed homozygous cell lines were used as sources; endogenous in cells; host or cells: Herluf (EBV-transformed homozygous B cell line)
- Test: biochemical
- Assay type: binding
- Experimental Context: read-out: Binding Capacity (IC 50% nM) Other Alleles DR5w12
Measurement Type: IC50

>  <Compound>
CC(C)C[C@H](NC(=O)CNC(=O)[C@H](C)NC(=O)[C@H](CC(C)C)NC(=O)[C@@H](NC(=O)[C@H](CO)NC(=O)[C@@H](NC(=O)[C@H](C)NC(=O)[C@H](CC(C)C)NC(=O)[C@H](CCCCN)NC(=O)[C@H](Cc1ccc(O)cc1)NC(=O)[C@@H](N)CCCCN)[C@@H](C)O)C(C)C)C(=O)N[C@@H](CC(C)C)C(=O)NCC(=O)N[C@@H](CC(N)=O)C(=O)O [Peptide F107.09]

>  <Obs Value>
> 1000 nM

$$$$

###

- Test Target: DRB1*1201 (DR5w12) (Homo sapiens, UniProt P01903+P01911, A100R/A169T/D57E/D86V/F55L/H45Y/K41T/L162R/M171V/P40S/Q125H/Q178H/Q39Y/Q99D/R42G/S66L/T262R/V114A/V67L/W38E/Y59H/Y61H/Y89S)
- Construct: Epstein-Barr virus (EBV) transformed homozygous cell lines were used as sources; endogenous in cells; host or cells: Herluf (EBV-transformed homozygous B cell line)
- Test: biochemical
- Format: binding
- Experimental Context: Binding Capacity (IC50% nM) DR5w12
Measurement Type: IC50

>  <Molecule>
CC(C)C[C@H](NC(=O)CNC(=O)[C@H](C)NC(=O)[C@@H](N)CC(C)C)C(=O)N[C@@H](CC(C)C)C(=O)NCC(=O)N[C@@H](CC(N)=O)C(=O)N[C@H](C(=O)N[C@@H](CO)C(=O)N[C@H](C(=O)N[C@H](C(=O)N[C@@H](CC(C)C)C(=O)N[C@@H](CC(C)C)C(=O)NCC(=O)NCC(=O)O)C(C)C)[C@@H](C)O)C(C)C [Peptide F107.10]

>  <Measurement Type>
IC50

>  <Obs Value>
> 10000 nM

$$$$
>  <Molecule>
CC[C@H](C)[C@H](NC(=O)[C@H](CO)NC(=O)[C@H](CO)NC(=O)[C@H](CC(N)=O)NC(=O)[C@@H](NC(=O)[C@@H](NC(=O)[C@H](CC(N)=O)NC(=O)[C@@H](N)Cc1ccccc1)C(C)C)C(C)C)C(=O)NCC(=O)N[C@@H](CC(C)C)C(=O)N[C@H](C(=O)N[C@@H](CCSC)C(=O)N[C@H](C(=O)N[C@@H](CC(C)C)C(=O)N[C@@H](CO)C(=O)O)C(C)C)[C@@H](C)CC [Peptide 27.384]

>  <Measurement Type>
IC50

>  <Obs Value>
> 10000 nM

$$$$
>  <Molecule>
CC[C@H](C)[C@H](NC(=O)[C@H](CC(C)C)NC(=O)[C@H](CC(=O)O)NC(=O)[C@@H](NC(=O)[C@H](Cc1ccccc1)NC(=O)[C@H](Cc1ccc(O)cc1)NC(=O)[C@H](Cc1c[nH]cn1)NC(=O)[C@H](Cc1c[nH]cn1)NC(=O)[C@@H](N)[C@@H](C)O)C(C)C)C(=O)NCC(=O)NCC(=O)N[C@@H](C)C(=O)N[C@@H](CCSC)C(=O)N[C@@H](CC(C)C)C(=O)N[C@@H](CO)C(=O)N[C@@H](CC(C)C)C(=O)O [Peptide 1136.47]

>  <Measurement Type>
IC50

>  <Obs Value>
> 10000 nM

$$$$

// provenance: patent US6413517B1
